Listing of recorded apparent Kd (screen) by entry.
target-under-test: T1, TNFR1 (Homo sapiens, UniProt P19438)
T1 chain: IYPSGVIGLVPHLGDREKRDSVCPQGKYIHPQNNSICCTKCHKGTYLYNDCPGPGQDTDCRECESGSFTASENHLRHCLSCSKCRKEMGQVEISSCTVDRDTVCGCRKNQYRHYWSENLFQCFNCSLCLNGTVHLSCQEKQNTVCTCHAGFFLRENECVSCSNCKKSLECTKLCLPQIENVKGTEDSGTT
test-method-notes: yeast display SC50

binder	apparent Kd (screen) / nM
W68K (designed binder) MTLQELLREEALRRAEAEAFRYALELLAEKFPEQKEYLLDLAEEIESQIRSLSGVDVEDVRKFLDKEKAWVKELLAEHPAELAEVEAARAARLAELRAEVEAKVAA	12.5
K35P (designed binder) MTLQELLREEALRRAEAEAFRYALELLAEKFPEQPEYLLDLAEEIESQIRSLSGVDVEDVRKFLDKEWAWVKELLAEHPAELAEVEAARAARLAELRAEVEAKVAA	2.73
